Where these numbers come from: patent US11839613B2

Entries and their measured IC50 follow.
Target: EP4 (Homo sapiens (Human))
Sequence (P35408 whole entry): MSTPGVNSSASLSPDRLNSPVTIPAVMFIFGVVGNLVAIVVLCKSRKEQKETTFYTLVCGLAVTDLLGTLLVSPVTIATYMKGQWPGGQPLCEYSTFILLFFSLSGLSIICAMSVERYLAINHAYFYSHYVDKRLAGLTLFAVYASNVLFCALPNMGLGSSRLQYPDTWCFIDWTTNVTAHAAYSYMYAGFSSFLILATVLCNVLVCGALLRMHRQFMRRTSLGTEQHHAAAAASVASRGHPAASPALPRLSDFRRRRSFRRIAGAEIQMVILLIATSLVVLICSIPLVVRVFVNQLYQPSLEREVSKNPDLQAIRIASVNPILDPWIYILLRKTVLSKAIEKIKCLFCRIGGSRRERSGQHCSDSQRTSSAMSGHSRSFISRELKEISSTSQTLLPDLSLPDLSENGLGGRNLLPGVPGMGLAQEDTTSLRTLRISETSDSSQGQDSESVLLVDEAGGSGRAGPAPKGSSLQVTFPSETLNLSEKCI
Assay: hEP4 cAMP assay (BT549 breast cancer cells, HTRF cAMP)
Type: cell-based
Conditions: antagonistic activity, PGE2 6 nM
Lab book: enter the figure in nM, no units written.

| item-smiles | observable | quantitative-readout |
| --- | --- | --- |
| COc1cc2c(cc1CCNc1cc(-c3ccc4oc(C(=O)O)cc4c3)ncn1)OCCO2 | IC50 | 118 |

Prompt: Look at this compound and give its reported IC50. "CCOc1cc(-c2cc(NCCc3ccc4ccccc4c3C)ncn2)sc1C(=O)NS(C)(=O)=O"
Response: 95

Prompt: Please report the recorded IC50 for "O=C(O)c1ccc(-c2cc(NCCc3cc(Cl)c4c(c3)OCCO4)ncn2)cc1OC1CCC1" .
Response: 364

Prompt: Need IC50 of "CCOc1cc(-c2cc(NCCc3cc4c(cc3OC)N(C)C(=O)CC4)ncn2)sc1C(=O)O" , thanks.
Response: 252

Prompt: Name the recorded IC50 for "O=C(O)c1ccc(-c2cc(NCCc3cc4ccccc4cc3OC(F)F)ncn2)cc1OC1CCC1" .
Response: 188

Prompt: Quick one: IC50 for "CCOc1cc(-c2cc(NCCc3ccc4c(c3)c(C)cn4C)ncn2)sc1C(=O)O" ?
Response: 109

Prompt: Any idea what its IC50 is? The compound is "CCOc1cc(-c2cc(NCCc3c(C#N)cc4ccccc4c3C)ncn2)sc1C(=O)O"
Response: 1

Prompt: For the compound shown here, "CCOc1cc(-c2cc(NCCc3ccc4sccc4c3)ncn2)ccc1C(=O)O" , give the reported IC50.
Response: 151

---

Molecular target: PTGER2 (EP2) (Homo sapiens (Human), UniProt P43116)
Sequence (P43116 whole entry): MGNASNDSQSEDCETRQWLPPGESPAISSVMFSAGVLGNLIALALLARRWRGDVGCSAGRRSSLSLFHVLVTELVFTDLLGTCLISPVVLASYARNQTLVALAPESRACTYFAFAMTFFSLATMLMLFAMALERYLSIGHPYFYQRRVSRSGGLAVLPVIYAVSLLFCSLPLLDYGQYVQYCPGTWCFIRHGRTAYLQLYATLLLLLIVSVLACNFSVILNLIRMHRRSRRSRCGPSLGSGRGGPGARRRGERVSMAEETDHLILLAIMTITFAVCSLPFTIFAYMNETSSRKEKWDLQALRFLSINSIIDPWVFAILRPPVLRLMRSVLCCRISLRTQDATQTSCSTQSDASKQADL
Assay: hEP2 b-arrestin assay (PathHunter HEK 293 PTGER2 b-arrestin cells)
Conditions: antagonistic activity, beta-arrestin assay; read-out: hEP2 b-arr IC50
observable: IC50 (µM)
Report the value in µM with no unit label.

Here are 6 compounds together with their reported answers.
| item-smiles | study-system | unit-of-measure | quantitative-readout |
| --- | --- | --- | --- |
| CCOc1cc(-c2cc(NCCc3cc(F)c4sccc4c3)ncn2)ccc1-c1noc(=O)[nH]1 | PTGER2 (EP2) (Homo sapiens (Human), UniProt P43116) | µM | 0.071 |
| CSc1cc(-c2cc(NCCc3cc4ccoc4cc3F)ncn2)ccc1C(=O)O | PTGER2 (EP2) (Homo sapiens (Human), UniProt P43116) | µM | 0.055 |
| CCOc1cc(-c2cc(NCCc3ccc4scc(Cl)c4c3)ncn2)ccc1C(=O)O | PTGER2 (EP2) (Homo sapiens (Human), UniProt P43116) | µM | 0.09 |
| CCOc1cc(-c2cc(NCCc3cc(F)c4sccc4c3)ncn2)ccc1CC(=O)O | PTGER2 (EP2) (Homo sapiens (Human), UniProt P43116) | µM | 0.479 |
| COc1cc2c(c(C)c1CCNc1cc(-c3ccc(C(=O)O)c(OC4CCC4)c3)ncn1)OCCO2 | PTGER2 (EP2) (Homo sapiens (Human), UniProt P43116) | µM | 0.002 |
| CCOc1cc(-c2cc(NCCc3cc4cccnc4cc3F)ncn2)sc1-c1noc(=O)[nH]1 | PTGER2 (EP2) (Homo sapiens (Human), UniProt P43116) | µM | 0.172 |

Prompt: # get_value(readout='IC50', item= "CCOc1cc2c(cc1CCNc1cc(-c3cc(OCC)c(C(=O)O)s3)ncn1)OCCO2" )
Response: 0.004

Prompt: Give the measured IC50 of "CCCc1cc(-c2cc(NCCc3cc(F)c4scc(Cl)c4c3)ncn2)ccc1CC(=O)O" .
Response: 0.196
